# TESTED ON: human M3 receptors (Homo sapiens, UniProt P20309)
# Construct: purchased Receptor Biology; host or cells: CHO-K1 cells transfected with the human receptor (membranes)
# Sequence (P20309 whole entry): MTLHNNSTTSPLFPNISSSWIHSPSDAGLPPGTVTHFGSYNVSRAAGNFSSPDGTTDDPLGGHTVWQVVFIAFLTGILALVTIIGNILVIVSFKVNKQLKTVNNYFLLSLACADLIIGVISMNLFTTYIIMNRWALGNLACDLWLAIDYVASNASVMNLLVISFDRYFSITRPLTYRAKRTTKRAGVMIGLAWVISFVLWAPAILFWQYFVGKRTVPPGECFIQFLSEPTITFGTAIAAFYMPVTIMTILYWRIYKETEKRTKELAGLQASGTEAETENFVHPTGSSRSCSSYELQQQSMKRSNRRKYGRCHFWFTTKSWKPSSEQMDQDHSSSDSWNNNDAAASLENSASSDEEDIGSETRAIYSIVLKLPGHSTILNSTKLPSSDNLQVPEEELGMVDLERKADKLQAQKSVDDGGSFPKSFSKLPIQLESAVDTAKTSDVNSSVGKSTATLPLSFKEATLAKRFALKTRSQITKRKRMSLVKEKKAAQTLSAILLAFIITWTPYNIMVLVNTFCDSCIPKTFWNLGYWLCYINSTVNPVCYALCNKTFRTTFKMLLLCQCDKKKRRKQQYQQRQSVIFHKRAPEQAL
# METHOD SUMMARY: Binding test to cloned human M3 muscarinic receptor ([3H]-NMS displacement, CHO-K1 membranes)
pKi: −log10 of the molar value. Where a name gives a salt, the structure may show the parent alone.
Below: a set of entries, each annotated with reported pKi.

>  <COMPOUND>
O=C(OC1CN2CCC1CC2)N(Cc1ccccc1)c1ccccc1 (centres unmarked) [Example 1, hydrochloride]

>  <pKi>
9.35

$$$$
>  <COMPOUND>
O=C(O[C@H]1CN2CCC1CC2)N(Cc1ccccc1)c1ccccc1 [Example 2, hydrochloride]

>  <pKi>
9.51

$$$$

----------
# TESTED ON: human M3 receptors (Homo sapiens)
# Construct: purchased Receptor Biology; host or cells: CHO-K1 cells transfected with the human receptor (membranes)
# METHOD SUMMARY: Binding test to cloned human M3 muscarinic receptor ([3H]-NMS displacement, CHO-K1 membranes)
# EXPERIMENTAL CONTEXT: membranes of CHO-K1 cells transfected with human M3; [3H]-NMS; mean of two independent experiments in duplicate; read-out: M3 (human M3 antagonist activity, binding affinity constant Ki)
pKi: −log10 of the molar value.
# cutoff 10 applies to pKi; >= gives Condition met, < gives Condition not met

>  <MOLECULE>
O=C(OC1CN2CCC1CC2)N(Cc1ccc(O)cc1)c1ccccc1 (centres unmarked)

>  <LABEL>
Condition not met

$$$$
>  <MOLECULE>
Cc1ccccc1N(Cc1ccc(CO)cc1)C(=O)OC1CN2CCC1CC2 (centres unmarked)

>  <LABEL>
Condition not met

$$$$
>  <MOLECULE>
O=C(OC1CN2CCC1CC2)N(CC1=CCCCC1)c1ccccc1F (centres unmarked)

>  <LABEL>
Condition met

$$$$
>  <MOLECULE>
Cc1cccc(N(Cc2cc(F)cc(F)c2F)C(=O)OC2CN3CCC2CC3)c1 (centres unmarked)

>  <LABEL>
Condition not met

$$$$
>  <MOLECULE>
O=C(OC1CN2CCC1CC2)N(Cc1cccc(F)c1F)c1cccc(Cl)c1 (centres unmarked)

>  <LABEL>
Condition not met

$$$$

----------
log10 of Ki reference
# TESTED ON: human M3 receptors (Homo sapiens)
# Construct: purchased Receptor Biology; host or cells: CHO-K1 cells transfected with the human receptor (membranes)
# METHOD SUMMARY: Binding test to cloned human M3 muscarinic receptor ([3H]-NMS displacement, CHO-K1 membranes)
# EXPERIMENTAL CONTEXT: membranes of CHO-K1 cells transfected with human M3; [3H]-NMS; mean of two independent experiments in duplicate; read-out: M3 (human M3 antagonist activity, binding affinity constant Ki)
OBSERVABLE: log10 of Ki (log10 of the value in nM)

>  <COMPOUND>
O=C(OC1CN2CCC1CC2)N(Cc1ccccc1Br)c1ccccc1 (stereo not drawn)

>  <OBSERVABLE>
log10 of Ki

>  <VAL>
0.63

$$$$
>  <COMPOUND>
O=C(OC1CN2CCC1CC2)N(Cc1ccccc1)c1ccccc1F (stereo not drawn)

>  <OBSERVABLE>
log10 of Ki

>  <VAL>
-1.33

$$$$
>  <COMPOUND>
C=C(C)C1CCC(CN(C(=O)OC2CN3CCC2CC3)c2cccc(C)c2)CC1 (stereo not drawn)

>  <OBSERVABLE>
log10 of Ki

>  <VAL>
-0.11

$$$$
>  <COMPOUND>
Cc1ccc(F)c(N(Cc2ccccc2F)C(=O)OC2CN3CCC2CC3)c1 (stereo not drawn)

>  <OBSERVABLE>
log10 of Ki

>  <VAL>
-0.28

$$$$
>  <COMPOUND>
NC(=O)c1ccc(CN(C(=O)OC2CN3CCC2CC3)c2ccccc2)cc1 (stereo not drawn)

>  <OBSERVABLE>
log10 of Ki

>  <VAL>
0.89

$$$$
>  <COMPOUND>
COc1ccc(F)c(CN(C(=O)OC2CN3CCC2CC3)c2ccccc2)c1 (stereo not drawn)

>  <OBSERVABLE>
log10 of Ki

>  <VAL>
0.23

$$$$
>  <COMPOUND>
C[N+]12CCC(CC1)C(OC(=O)N(CC1CCCCC1)c1ccccc1F)C2.[I-] (stereo not drawn)

>  <OBSERVABLE>
log10 of Ki

>  <VAL>
1.15

$$$$
>  <COMPOUND>
O=C(OC1CN2CCC1CC2)N(Cc1cccc(OCc2ccccc2)c1)c1cccc(Cl)c1 (stereo not drawn)

>  <OBSERVABLE>
log10 of Ki

>  <VAL>
-0.37

$$$$
>  <COMPOUND>
Cc1cccc(N(Cc2ccc(C)c(F)c2)C(=O)OC2CN3CCC2CC3)c1 (stereo not drawn)

>  <OBSERVABLE>
log10 of Ki

>  <VAL>
-0.49

$$$$

----------
# TESTED ON: human M3 receptors (Homo sapiens)
# Construct: purchased Receptor Biology; host or cells: CHO-K1 cells transfected with the human receptor (membranes)
# METHOD SUMMARY: Binding test to cloned human M3 muscarinic receptor ([3H]-NMS displacement, CHO-K1 membranes)
# EXPERIMENTAL CONTEXT: membranes of CHO-K1 cells transfected with human M3; [3H]-NMS; mean of two independent experiments in duplicate; read-out: M3 (human M3 antagonist activity, binding affinity constant Ki)
pKi: −log10 of the molar value.
OBSERVABLE: pKi

>  <COMPOUND>
Cc1cccc(N(CC2CCC(C)CC2)C(=O)OC2CN3CCC2CC3)c1 (stereo not drawn)

>  <VAL>
10.06

$$$$
>  <COMPOUND>
O=C(OC1CN2CCC1CC2)N(Cc1cc(F)c(F)c(F)c1)c1cccc(F)c1 (stereo not drawn)

>  <VAL>
10.40

$$$$
>  <COMPOUND>
O=C(OC1CN2CCC1CC2)N(Cc1cc(F)c(F)c(F)c1)c1ccc(F)cc1 (stereo not drawn)

>  <VAL>
9.18

$$$$
>  <COMPOUND>
COc1ccc(CN(C(=O)OC2CN3CCC2CC3)c2cccc(Cl)c2)c(F)c1 (stereo not drawn)

>  <VAL>
9.14

$$$$
>  <COMPOUND>
COc1ccc(CN(C(=O)OC2CN3CCC2CC3)c2ccccc2F)cc1F (stereo not drawn)

>  <VAL>
8.48

$$$$
>  <COMPOUND>
O=C(OC1CN2CCC1CC2)N(Cc1ccc(F)c(F)c1)c1ccccc1 (stereo not drawn)

>  <VAL>
10.00

$$$$
>  <COMPOUND>
Cc1cccc(C)c1N(Cc1ccccc1)C(=O)OC1CN2CCC1CC2 (stereo not drawn)

>  <VAL>
8.21

$$$$
>  <COMPOUND>
C[N+]12CCC(CC1)C(OC(=O)N(Cc1ccc(F)cc1)c1ccccc1)C2.[I-] (stereo not drawn)

>  <VAL>
8.44

$$$$
>  <COMPOUND>
O=C(OC1CN2CCC1CC2)N(CC1CC1)c1ccccc1 (stereo not drawn)

>  <VAL>
9.22

$$$$
>  <COMPOUND>
O=C(OC1CN2CCC1CC2)N(Cc1cc(F)ccc1F)c1ccccc1Cl (stereo not drawn)

>  <VAL>
9.32

$$$$
>  <COMPOUND>
O=C(OC1CN2CCC1CC2)N(Cc1ccccc1)c1ccc(F)c(F)c1 (stereo not drawn)

>  <VAL>
7.71

$$$$
>  <COMPOUND>
O=C(OC1CN2CCC1CC2)N(Cc1ccc(Cl)c(F)c1)c1ccccc1F (stereo not drawn)

>  <VAL>
9.43

$$$$
>  <COMPOUND>
O=C(OC1CN2CCC1CC2)N(Cc1ccccc1)c1ccc2c(c1)CCC2 (stereo not drawn)

>  <VAL>
7.51

$$$$
>  <COMPOUND>
CC(C)(C)c1ccc(CN(C(=O)OC2CN3CCC2CC3)c2ccccc2)cc1 (stereo not drawn)

>  <VAL>
9.96

$$$$
>  <COMPOUND>
O=C(OC1CN2CCC1CC2)N(Cc1ccc(F)c(F)c1F)c1cccc(Cl)c1 (stereo not drawn)

>  <VAL>
9.40

$$$$
>  <COMPOUND>
O=C(OC1CN2CCC1CC2)N(Cc1ccc(C(F)(F)F)cc1)c1ccccc1 (stereo not drawn)

>  <VAL>
9.49

$$$$
>  <COMPOUND>
Cc1ccc(F)c(N(Cc2ccc(Cl)cc2)C(=O)OC2CN3CCC2CC3)c1 (stereo not drawn)

>  <VAL>
8.92

$$$$
>  <COMPOUND>
O=C(OC1CN2CCC1CC2)N(Cc1ccc(F)c(Cl)c1)c1ccccc1 (stereo not drawn)

>  <VAL>
8.82

$$$$

----------
# TESTED ON: human M3 receptors (Homo sapiens)
# Construct: purchased Receptor Biology; host or cells: CHO-K1 cells transfected with the human receptor (membranes)
# METHOD SUMMARY: Binding test to cloned human M3 muscarinic receptor ([3H]-NMS displacement, CHO-K1 membranes)
# EXPERIMENTAL CONTEXT: membranes of CHO-K1 cells transfected with human M3; [3H]-NMS; mean of two independent experiments in duplicate; read-out: M3 (human M3 antagonist activity, binding affinity constant Ki)
Known log10(Ki) of a selection of molecules
OBSERVABLE: log10(Ki) (log10 of the value in nM)

>  <MOLECULE>
O=C(OC1CN2CCC1CC2)N(Cc1ccc(Cl)c(Cl)c1)c1ccccc1 (stereo not drawn)

>  <TESTED ON>
human M3 receptors (Homo sapiens)

>  <log10(Ki)>
0.15

$$$$
>  <MOLECULE>
N#Cc1ccc(CN(C(=O)OC2CN3CCC2CC3)c2ccccc2)cc1 (stereo not drawn)

>  <TESTED ON>
human M3 receptors (Homo sapiens)

>  <log10(Ki)>
-0.05

$$$$
>  <MOLECULE>
O=C(OC1CN2CCC1CC2)N(CC1CCCCC1)c1ccccc1F (stereo not drawn)

>  <TESTED ON>
human M3 receptors (Homo sapiens)

>  <log10(Ki)>
-1.60

$$$$
>  <MOLECULE>
Cc1cccc(N(Cc2cc(F)cc(F)c2)C(=O)OC2CN3CCC2CC3)c1 (stereo not drawn)

>  <TESTED ON>
human M3 receptors (Homo sapiens)

>  <log10(Ki)>
-1.05

$$$$
>  <MOLECULE>
COc1cc(CN(C(=O)OC2CN3CCC2CC3)c2cccc(Cl)c2)ccc1OCc1ccccc1 (stereo not drawn)

>  <TESTED ON>
human M3 receptors (Homo sapiens)

>  <log10(Ki)>
1.72

$$$$
>  <MOLECULE>
Cc1cccc(N(Cc2ccc(F)cc2)C(=O)OC2C[N+]3(C)CCC2CC3)c1.[I-] (stereo not drawn)

>  <TESTED ON>
human M3 receptors (Homo sapiens)

>  <log10(Ki)>
0.58

$$$$
>  <MOLECULE>
C[N+]12CCC(CC1)C(OC(=O)N(Cc1ccccc1)c1ccccc1)C2.[I-] (stereo not drawn)

>  <TESTED ON>
human M3 receptors (Homo sapiens)

>  <log10(Ki)>
0.41

$$$$
>  <MOLECULE>
Cc1ccccc1N(Cc1ccccc1)C(=O)OC1C[N+]2(C)CCC1CC2.[I-] (stereo not drawn)

>  <TESTED ON>
human M3 receptors (Homo sapiens)

>  <log10(Ki)>
1.16

$$$$
>  <MOLECULE>
Cc1cccc(N(Cc2cc(F)c(F)cc2F)C(=O)OC2CN3CCC2CC3)c1 (stereo not drawn)

>  <TESTED ON>
human M3 receptors (Homo sapiens)

>  <log10(Ki)>
-1.51

$$$$
